tested on: MDA-MB-231; experiment: MTT cytotoxicity assay, MDA-MB-231 cells; assay type: cell-based, human; details: 72 h exposure, MTT; read-out: IC50 (μM) (average ± standard deviation) 72 h MDA-MB-231

# Molecule, Unit info, IC50
rows = [
    ("Cc1c(C)c(C)[c-](C)c1C.[Cl][Ru+]([PH]12CN3CN(CN(C3)C1)C2)[PH]12CN3CN(CN(C3)C1)C2 [Compound 2]", "µM", 63),
    ("Cc1ccc(C(C)C)cc1.O=C1[O][Ru]([PH]23CN4CN(CN(C4)C2)C3)[O]C1=O [Compound 7]", "µM", 83),
    ("Cc1ccc(CCC(=O)O)cc1.O=C1[O][Ru]([PH]23CN4CN(CN(C4)C2)C3)[O]C1=O [Compound 8]", "µM", 50),
    ("Cc1cccc[c]1[Ru+]([Cl])([PH](c1ccccc1)(c1ccccc1)c1ccccc1)[PH](c1ccccc1)(c1ccccc1)c1ccccc1.[F][Sb-]([F])([F])([F])([F])[F] [Compound 11SbF6]", "µM", 0.131),
    ("Cc1ccccc1.[Cl-].[Cl][Ru+]([PH](c1ccccc1)(c1ccccc1)c1ccccc1)[PH](c1ccccc1)(c1ccccc1)c1ccccc1 [Compound 11Cl, [Ru(η^6-toluene)(PPh3)2Cl]Cl]", "µM", 0.086),
    ("C[NH+](C)Cc1ccccc1.[Cl-].[Cl][Ru]([Cl])[PH]12CN3CN(CN(C3)C1)C2 [Compound 3]", "µM", 60),
    ("Cc1ccccc1.[Cl][Ru]([Cl])[PH]12CN3CN(CN(C3)C1)C2 [Compound 4]", "µM", 83),
    ("Cc1ccc(C(C)C)cc1.[Br][Ru]([Br])[PH]12CN3CN(CN(C3)C1)C2 [Compound 6]", "µM", 63),
    ("Cc1cccc[c]1[Ru+]([Cl])([PH](c1ccccc1)(c1ccccc1)c1ccccc1)[PH](c1ccccc1)(c1ccccc1)c1ccccc1.O=[N+]([O-])[O-] [Compound 11NO3]", "µM", 0.109),
    ("Cc1cccc[c]1[Ru+]([Cl])([PH](c1ccccc1)(c1ccccc1)c1ccccc1)[PH](c1ccccc1)(c1ccccc1)c1ccccc1.F[P-](F)(F)(F)(F)F [Compound 11PF6]", "µM", 0.16),
    ("Cc1cccc[c]1[Ru+]([Cl])([PH](c1ccccc1)(c1ccccc1)c1ccccc1)[PH](c1ccccc1)(c1ccccc1)c1ccccc1.c1ccc([B-](c2ccccc2)(c2ccccc2)c2ccccc2)cc1 [Compound 11BPh4]", "µM", 1.7),
    ("Cc1cccc[c]1[Ru+]([Cl])([PH](c1ccccc1)(c1ccccc1)c1ccccc1)[PH](c1ccccc1)(c1ccccc1)c1ccccc1.F[B-](F)(F)F [Compound 11BF4]", "µM", 0.19),
]

###

Listing of recorded IC50 by entry.
system: MDA-MB-231; assay: MTT cytotoxicity assay, MDA-MB-231 cells; type: cell-based, human; settings: 24 h exposure, MTT; read-out: IC50 (µM) (average ± standard deviation) 24 h MDA-MB-231

# Structure string, Unit info, IC50
records = [
    ("Cc1cccc[c]1[Ru+]([Cl])([PH](c1ccccc1)(c1ccccc1)c1ccccc1)[PH](c1ccccc1)(c1ccccc1)c1ccccc1.F[B-](F)(F)F", "µM", 4.3),
    ("C[NH+](C)Cc1ccccc1.[Cl-].[Cl][Ru]([Cl])[PH]12CN3CN(CN(C3)C1)C2", "µM", 357),
    ("Cc1ccccc1.[Cl][Ru]([Cl])[PH]12CN3CN(CN(C3)C1)C2", "µM", 384),
    ("Cc1c(C)c(C)[c-](C)c1C.[Cl][Ru+]([PH]12CN3CN(CN(C3)C1)C2)[PH]12CN3CN(CN(C3)C1)C2", "µM", 286),
]
